// provenance: PubChem BioAssay (NCATS)

Assay: Cellular Toxicity (caspase-3) SHSY5Y (AID 657);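 note: cells exposed to compound for 16 hours at 37 °C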
Settings: SH-SY5Y caspase-3 activation; series mostly up to 91.7 µM
Activity calls are given as the source filed them. Calls come from the whole dose curve; as a rule, active = well fitted activation curve with a large enough effect; inconclusive = small, poorly fitted or top-dose-only effect; inactive = flat fitted curve, though single readings scatter.
assay_endpoint: outcome

> print(dat)
                                   compound  reported.measurement
1                           Oc1cccc2cccnc12              inactive
2  CCCC(C)(COC(N)=O)COC(=O)NC(C)C (stereo not drawn)              inactive
3      NCC(O)c1ccc(O)cc1 (stereo not drawn)              inactive

====

System: ECU
Assay: qHTS profiling for inhibitors of Plasmodium falciparum proliferation (AID 504749); note: nearly all actives have a fitted effect of over 60% in size
Conditions: P. falciparum in erythrocytes, SYBR Green DNA, 72 h; series mostly up to 28.7 µM
Experimental: NIH National Institute of Allergy and Infectious Diseases [NIAID] NIH Chemical Genomics Center [NCGC] […] Because mature erythrocytes lack DNA, only Plasmodium-derived DNA is detected. NCGC Assay Protocol Summary: The SYBR Green viability assay was adapted from a method described previously (Plouffe et al., 2008). […] The following morning, fluorescence intensity at 485(14) nm excitation and 535(25) nm emission wavelengths was measured on an EnVision (Perkin Elmer) plate reader. […]
Inconclusive results are not listed. Activity calls are given as the source filed them. Calls come from the whole dose curve; as a rule, active = well fitted inhibition curve with a large enough effect; inconclusive = small, poorly fitted or top-dose-only effect; inactive = flat fitted curve, though single readings scatter.
Outcome codes: 1 (yes) for active, 0 (no) for inactive

> print(dat)
                                    compound    label
 1  C[C@]12C/C(=C/O)C(=O)C[C@@H]1CC[C@@H]1[C@@H]2CC[C@@]2(C)[C@H]1CC[C@]2(C)O   0 (no)
 2  O=C1NCN(c2ccccc2)C12CCN(CC1COc3ccccc3O1)CC2 (configuration not stated)   0 (no)
 3  CN1C[C@H](CNC(=O)OCc2ccccc2)C[C@@H]2c3cccc4c3c(cn4C)C[C@H]21  1 (yes)
 4                        NCCc1cc(O)c(O)cc1O   0 (no)
 5            CC(=O)Nc1cc([As](=O)(O)O)ccc1O   0 (no)
 6                NP(N)(=O)NC(=O)c1ccc(F)cc1   0 (no)
 7                 N#CC(C#N)=Cc1ccc(O)c(O)c1   0 (no)
 8       O=[N+]([O-])c1cc([As](=O)(O)O)ccc1O  1 (yes)
 9  NCC(CC(=O)O)c1ccc(Cl)cc1 (configuration not stated)   0 (no)
10  Clc1ccc(COC(Cn2ccnc2)c2ccc(Cl)cc2Cl)cc1 (configuration not stated)  1 (yes)
11           Cc1ncc(CNC(=O)N(CCCl)N=O)c(N)n1   0 (no)
12  CCC(C(N)=O)N1CCCC1=O (configuration not stated)   0 (no)
